- System: naive HEK293 cells
- experimentalProtocol: Intrinsic toxicity in naive HEK293 cells (MTT)
- Assay type: cell-based
- studyConditions: 8-point dose-response curve, 48 h
attributeMeasured: LD50 (lethal dose at 50%)

molecule	assayResult
O=C(CN1c2cccc(Br)c2-c2ccccc2S1(=O)=O)NC1CCCCC1	28.21 µM
CCOc1ccc2c(c1)S(=O)(=O)N(CC(=O)NC1CCCCC1)c1ccc(C(F)(F)F)cc1-2	>100 µM
O=C(CN1c2ccc(C(F)(F)F)cc2-c2ccc(F)cc2S1(=O)=O)NN1CCOCC1	>100 µM
O=C(CN1c2ccc(C(F)(F)F)cc2-c2ccc(F)cc2S1(=O)=O)NC1CCOCC1	>100 µM
O=C(CN1c2cc(Br)ccc2-c2ccccc2S1(=O)=O)NC1CCCCC1	37.46 µM
O=C(CN1c2ccc(Br)cc2-c2ccccc2S1(=O)=O)NC1CCCCC1 [SM3, reference compound]	>100 µM
O=C(CN1c2ccc(C(F)(F)F)cc2-c2ccc(F)cc2S1(=O)=O)NC1CCCCC1	>100 µM
O=C(CN1c2ccc(C(F)(F)F)cc2-c2ccccc2S1(=O)=O)NC1CCCCC1	22.4 µM

Result for CCC(CC)NC(=O)CN1c2ccc(C(F)(F)F)cc2-c2ccc(F)cc2S1(=O)=O , tested on naive HEK293 cells, LD50 (lethal dose at 50%): >100 µM

The values you see were collected from patent US20240376092A1.
